protocol details: soluble on expression in E. coli; label from the status in PepcDB or PDB records
measurement name: soluble on expression in E. coli

MSIKQWPEGERPREKLLERGAAALSDAELLAILLRVGTRGMSAVDLARYLLQEFGSLGRLMSAEVGKLSAYKGMGTASFTQFAVVREIGRRILAEELQESIVLSDPDTVADYLRFHLGQEKVEVSVALLLNRQNQLIAVRELSRGTVAENTIYIREIVKLALDEYADSLIIAHNHPGGSPEPSQEDIMFTRRLAQAMSLVDVSLLDHFIVTSQSVCSFRQLGLMP	not soluble
MEKTRANSHLRSQPIDWTIEEVIQYIESNDNSLAVHGDLFRKHEIDGKALLRLNSEMMMKYMGLKLGPALKICNLVNKVNGRDHHHHHH	soluble
MIFTTQVKYTYDTLSTFPEDMPSREGFTLISDHFGAGMLAPMEVVVNSKESMKSSLENVNGVASVTGPERSKGYQKYTLILKDNPYSNEAMDVVPKVRAAADKGNDVYIAGQTATQYDDRAVTEHDEKVIIPLEHHHHHH	soluble
MATPLWQTIYNNAVLLPESPKAIVHFLGGAFIAAAPQVTYRRLLEGLGDRGFAVIATPFINTFDHTTLADEVGRSYRLAYERLLALGLISPELPIFGVGHSMGSKLHLLMGCAQTSDRRGNVLLAFNNYSARRSIPLLGQLAPALDVTVEFSPSPARTLRLIRDRYSVANNLLVKFRNDEIDQTRDLIGALRDRFPETSEWLRLSGNHLTPVGQSLPQQTGLAWLDGVSQLASRELGRDLEVVTTAIADWCDRQLTAPATVVLEHHHHHH	not soluble

List soluble on expression in E. coli for every entry below, keeping the order given.
1. EFSLSTLLEMTVGLASGANNEERFHRLLDAVRKAVICDCVVLMSLHNDTLTPLAMQGLTRDTLGRRFVVSEHPRLAQICSADLPVRFAADCPLPDPFDGLLLDSEDDLPMHSCMGLPLHFGEQLLGILTLDSLKPDAFDHLSPRSLEILAAIAAATLKMTLTFSELENQAKQTQLRLEELNQEAWSRDSVE
2. MLPKSSLKETQQALANAIRLGNADPLNGYAASRLAVYTRLVRNNAFGFIDRCFVEAPLHIEPEYWKNAKENFVQNGNAHSPYFQDIAGEFLLFCQEKEIFDTNILALMDFENTQLLAEVSLAKVPEKFEWNRHSVMQLSGAAYLKSYDVDFLSSDFKQFDDTPIQAIIWRDSDFRIQQQILSELDYWLLSYLQEQPNSLENVLSALNTMVEDSTSIIPLLEQVWMKWVTSEVIYPEQR
3. MAHHHHHHMLEFLVTTQPSRRIVCRNEATYIYFWPYLFSREVPGALQLCRWAARRGAAVHGAVRLQPSETPNAAHRCYLTVTRPVAAGRTLISLPAALSLSVSSPESRKGTFIGRYSALESFAQLLARELHNPRSPHRAYLEFLHDLHNSGTDEVSDALLAGLRYERAAVLVDQLDAMYAGNSLQARGAANAPFLDKEQLTSASQRVEWVRLHQLQRRLEQGVPHFAAKSTAWALSMALSRAMEDDAEGLSLYPLIDFCAHSFEPNAYICVGEDERIAATRPVRWADSSGEPLLHVVTRRLLHAGEKVTLRWHWRPVKTTEDAEFWQMRFGYVPQSE

a:
1. not soluble
2. not soluble
3. not soluble

* * *

protocol details: soluble on expression in E. coli; label from the status in PepcDB or PDB records
measurement name: soluble on expression in E. coli

MLRVLVRTGSEACRAVSTSTAVLSVHPVVKSEDLSAKEIWDRRSKLRVPKLQKDEQLSSKVYFAPEWDLEKKPNLDEGFVNPLKGYGMTPEKWEYYNKVVWPPNYIVPETGLPKPKEVFHCKESVHFSPKRMWAACQLVWKMNVDEAITQLDMQQLKACNLLMDTIKKAKSRAADEFHIEYPSQMYVADAFPVQSNIVKGARRHAHDNWNTIRYRYIHIFVRLEEGPAPQQKQRHPQKNGWDHMDEYYNYLRSRTVKYSI	not soluble
SRNICYDAFVSYSERDAYWVENLMVQELENFNPPFKLCLHKRDFIHGKWIIDNIIDSIEKSHKTVFVLSENFVKSEWCKYELDFSHFRLFDENNDAAILILLEPIEKKAIPQRFCKLRKIMNTKTYLEWPMDEAQREGFWVNLRAAIKS	soluble
MRIVAVTDIHGNMASTVALANILKKIEAELLLIAGDITHFSGGEIAKQILEPLLKLGVRVLAVMGNCDGKDVPKVLDELGINVHNARVEVKKVGVVGFGGSSVTPFSTIWEFSEEEIYSSLKRNYRSGDIVLTHAPPYRTRIDKTFSGIHAGSKGLRKFIEEEQPPICICGHIHEARGIDKIGETLVVNPGPLSRRYYAVIDSETWEVKLERLLEHHHHHH	soluble
MGSDKIHHHHHHMVLLILKFHGESVKIKPECAICIIRQVVDAANEITDDEREQFRLIKSTMEVIKDVYGESAVPAWMGTVVHRYLKKISNNNDPYKNLKEKANKIALQYLDKVREMSNTDDELERLRKKVLATIAGNVIDFGAYSTGINIEKLIEDTLNGELKIDNSRKLLNDLKDKNIKKILYICDNAGEIIFDRVLMEEIKKYDKDIVAVVKGKPILNDATLEDAKIAKIDEIAKVITTGSDIIGIILEECSEEFLKEFESADLIIAKGMGNYESLTEYEDKIDKPIYYILKAKCKPVAENIGVDVGDNVLLKR	not soluble
MIELEGVPELVDPVMVAAFEGWNDAGDAASTAVAHLDREWKGEVFAALDAEDYYDFQVNRPTVFMEDGVRKITWPTTRLSVVRVGGDKPRDLVLVRGIEPSMRWRSFCNELLGFAHELGVELVVVLGALLGDTPHTRPVPISGTTSDADLARRMDLEETKYEGPTGIVGILQEACTHAGVPAVSLWAAVPHYVSQPPNPKATLALLNRLEDLIGVRVPLGELPEDARAWQVGVDQLAAEDTEVAEYVQSLEEARDTA	soluble
MGSDKIHHHHHHMKLWAIYFEPEDWVGFRETRRFSFSDRVESVFPSSFPFYGAVRTALLMKNQKFDPGDVERAGDVRMFGPFVFENTPEGRKHYFPLPRNIYKTDSGYRVTPIVEIDGVYLPWKPEYKMDSKESTSGGLIELSDLELLRSNTQGVCKFDLVSAEKIFKKETHIGVAFEENRKKVKERMIYSISYYRFYDGGFFMFTDDERTVELVSKLDGVFLGMKSKWSAVEVEELNTTAFDPPDYKNVAVALITPAVFDGGGMPKDKTILGKRVLTTAGIRKQVVSGWDLRENKPKKIYHAVSPGAVYYLEGKVNGHVLNESKFTDFGFGRCIFMKYEKL	not soluble
YPMVNNYLEMGHGLYVVEIHVKSNLHDTPLSKLISRGSYNIQPILVKREEAVYTNINDEFVLNEFDTLLLCGSRAELKYVAPRLV	not soluble
MGYNETIYHKPFIKINMPDVLGKPDATQIPDDVWLDILINYLQPQDIVNLSEINNRLSRLFKTQHTQSEQLNQKKTLGILKVFAGYSSTFLFARLNGKQRLFKTRNWSAADSDNINPILMPISLPENISVIESIQSTYKHTVVVGRDKHDQIIVATNKINQDYAKQETSHNQLIPLPLRDINISLVSAGNEEDYILNPIFSFPATQQGNCILNCIK	not soluble
MRNIYDLANELERGIRALPEYKNLVEKKEAIATDAEASALFKEFTDFQEDFYAKMQAGTMPTAEEQAAVQELGQKVEANALLKEYLTAQQSLSVYLNDIERIIFKPLQELNN	not soluble
MGSDKIHHHHHHVTSVSLGMPSAPPPVLAPRRKTRQIKVGSVGVGSDSPISVQSMTTTPTTDINATLQQIAELTASGCDIVRVACPSADDAEALPIIARKSQIPVIADIHFQPKYVFAAIEAGCAAVRVNPGNIRKFDDQVKEIARAAKDHGTSIRIGVNAGSLEPGILKKYGKATPEALVESAVWEASLFEEHGFHDFKISVKHNDPVIMVAAYEMLAEKGDWPLHLGVTEAGPAFQGTIKSATAFGALLSRGIGDTIRVSLSAPPVEEIKVGNQILQSLNLRPRKLEIVSCPSCGRAQVDVYTLAEQVTAGLEGMEIPLRVAVMGCVVNGPGEAREADLGVASGNGKGQIFVKGEVIKTVPESEIVETLIEEAMRIAEEMGEADGEDAVKGSPVVSVS	not soluble

Give soluble on expression in E. coli for each of the items listed below.
1. MGSDKIHHHHHHATTLLVSCSNQQTQTKAITVSDTTLLSAEEFSQKIKKEPNALILDVRTPEEFSEAHIANATNVNWKDNFASGITEVNKNQPVLVYCLSGGRSASASDYLRKNGYTQVYELQGGLLKWQASNFEVVADTVTAAQDSGMTLQQFEALLVTDKYVLIDFYATWCGPCKMMEPALEDIAATMSDKVIVVRIDVDKNEELSKHFEVESLPTVQIYKNKKLVWEDIGYKTKKQLVSQLK
2. MGFKQDIATIRGDLRTYAQDIFLAFLNKYPDERRYFKNYVGKSDQELKSMAKFGDHTEKVFNLMMEVADRATDSVPLASDANTLVQMKQHSSLTTGNFEKLFVALVEYMRASGQSFDSQSWDRFGKNLVSALSSAGMK

a:
1. not soluble
2. soluble
